All figures here come from ChEMBL document CHEMBL3414566.

- System: A549
- Assay details: Anticancer activity against human A549 cells by MTT assay
- Type: functional, cell-based
- Assay setup: Homo sapiens, A549; read-out: IC50
pIC50: −log10 of the molar value.
Output criterion met for pIC50 not less than 4; output criterion not met otherwise.

Please tell me: is the compound CCCCCn1cc(COc2ccc(/C=C/C(=O)c3ccc4c(c3O)CCC(C)(C)O4)cc2)nn1 at or over 4 in terms of pIC50?
criterion met

Quick check: does CC1(C)CCc2cc(C(=O)/C=C/c3ccc(OCc4cn(-c5ccc(Cl)cc5)nn4)cc3)c(O)cc2O1 have pIC50 greater than or equal to 4?
criterion met

Determine whether measured pIC50 meets or exceeds 4 for CCc1ccccc1-n1cc(COc2ccc(/C=C/C(=O)c3cc4c(cc3O)OC(C)(C)CC4)cc2)nn1
criterion not met
